// provenance: patent US11072626B2

# EXPERIMENTAL_TARGET: His-tagged recombinant human Gal-3 (hGal-3) (Homo sapiens (Human), UniProt P17931)
# Sequence (P17931 whole entry): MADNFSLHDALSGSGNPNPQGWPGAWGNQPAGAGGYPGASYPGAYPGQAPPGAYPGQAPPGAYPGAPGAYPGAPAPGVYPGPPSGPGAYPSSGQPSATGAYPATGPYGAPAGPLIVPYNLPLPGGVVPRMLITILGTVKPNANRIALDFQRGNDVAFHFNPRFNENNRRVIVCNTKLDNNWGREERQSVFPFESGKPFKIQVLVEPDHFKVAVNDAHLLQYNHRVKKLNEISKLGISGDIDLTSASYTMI
# EXPERIMENT: Gal-3 HTRF assay (hGal-3 / B-ASF)
# Format: binding
# ASSAY_CONTEXT: 15 nM hGal-3, 15 nM B-ASF, three replicates, room temperature, read-out: hGal3 IC50
# Method: ASSAY BUFFER Composition: 25 mM HEPES, 100 mM NaCl, 0.005% Tween 20, 0.05% BSA prepared in sterile water (all reagents from Sigma) […] PROTOCOL: The Gal-3 assays were performed in 384 white Opti plates in three replicates at room temperature with gentle shaking at 250-300 rpm From the original stocks, […] working stock concentrations of His-tagged recombinant human Gal-3 (hGal-3) and that of B-ASF were prepared. […] Data analysed using Toolset and Curve Master. […]
MEASURED_METRIC: IC50 (µM)
Answers are plain numbers, in µM.

Reference set (4 entries):
[Q] Recall the reported IC50 of `O=C(O)CO[C@@H]1[C@@H](n2cc(-c3cc(F)c(F)c(F)c3)nn2)[C@@H](O)[C@@H](CO)O[C@@H]1S(=O)(=O)c1ccc(Cl)c(Cl)c1` when tested on His-tagged recombinant human Gal-3 (hGal-3) (Homo sapiens (Human), UniProt P17931).
[A] 0.06

[Q] Lab note: record IC50 of CO[C@@H]1[C@@H](n2cc(-c3cc(F)c(F)c(F)c3)nn2)[C@@H](O)[C@@H](CO)O[C@@H]1[S+]([O-])c1ccc(Cl)c(Cl)c1 (single isomer, unassigned) [Example 2 (isomer-1)] tested on His-tagged recombinant human Gal-3 (hGal-3) (Homo sapiens (Human), UniProt P17931).
[A] 0.029

[Q] Please respond with reported IC50 (system His-tagged recombinant human Gal-3 (hGal-3) (Homo sapiens (Human), UniProt P17931)) for `CO[C@@H]1[C@@H](n2cc(C(=O)N(C)C3CC3)nn2)[C@@H](O)[C@@H](CO)O[C@@H]1Sc1ccc(Cl)c(Cl)c1` .
[A] 5

[Q] Give IC50 for this entry on His-tagged recombinant human Gal-3 (hGal-3) (Homo sapiens (Human), UniProt P17931): O=C(O)CO[C@@H]1[C@@H](n2cc(-c3cc(F)c(F)c(F)c3)nn2)[C@@H](O)[C@@H](CO)O[C@@H]1[S+]([O-])c1ccc(Cl)c(Cl)c1 (single isomer, unassigned) [18 (isomer-2)]
[A] 0.1

New cases:
[Q] Write down measured IC50 (His-tagged recombinant human Gal-3 (hGal-3) (Homo sapiens (Human), UniProt P17931)) for this compound. CC(O[C@@H]1[C@@H](n2cc(-c3cc(F)c(F)c(F)c3)nn2)[C@@H](O)[C@@H](CO)O[C@@H]1S(=O)(=O)c1ccc(Cl)c(Cl)c1)C(=O)O (single isomer, unassigned) [Example 39 (isomer-1)]
[A] 0.36
